Test method notes: Food effect cross-over study, 200 mg (25 mg tablets), healthy volunteers: plasma pharmacokinetics
Assay type: in vivo, human
Particulars: human, plasma, po, single 200 mg oral dose, Fasted (N = 10), read-out: AUClast, Median

[
  {
    "Cpd smiles": "Cn1cc(S(=O)(=O)[C@@](C)(F)C2CCN(C(=O)Nc3ccon3)CC2)c(C(F)F)n1",
    "AUC(0-t) (ng·h/mL)": 64400
  }
]

----------
Test method notes: HFrEF study Part 2 (MAD Cohorts A-D): plasma pharmacokinetics
Format: in vivo, human
Particulars: human, plasma, oral, 75 mg, MAD Cohort A, 75 mg BID (4 h fasting); Mean; read-out: Cmax, SS
Text: This was a randomized, parallel-group, DB, placebo-controlled, adaptive design, sequential ascending (oral) multiple-close study in stable patients with heart failure. Four MAD Cohorts (A, B, C, D) were enrolled (FIG. 5B). An SRC reviewed results from each cohort and determined the close and confirmed initial sample size for the subsequent cohort. […]
Result type: Cmax (ng/mL)

[
  {
    "Cpd smiles": "Cn1cc(S(=O)(=O)[C@@](C)(F)C2CCN(C(=O)Nc3ccon3)CC2)c(C(F)F)n1",
    "Unit string": "ng/mL",
    "Value reported": 4050
  }
]

----------
Test method notes: Single ascending oral dose study in healthy volunteers: plasma pharmacokinetics
Assay type: in vivo, human
Particulars: human, plasma, oral, 350 mg, 48 Hours Postdose; 350 mg; read-out: Plasma concentration, Geometric Mean
Result type: concentration at 48 h (ng/mL)

[
  {
    "Compound": "Cn1cc(S(=O)(=O)[C@@](C)(F)C2CCN(C(=O)Nc3ccon3)CC2)c(C(F)F)n1 [Compound I]",
    "Value reported": 329
  }
]

----------
Test method notes: Single ascending oral dose study in healthy volunteers: plasma pharmacokinetics
Format: in vivo, human
Particulars: human, plasma, oral, 100 mg; read-out: Half-Life Lambda Z, Mean (converted)

[
  {
    "Cpd smiles": "Cn1cc(S(=O)(=O)[C@@](C)(F)C2CCN(C(=O)Nc3ccon3)CC2)c(C(F)F)n1",
    "Unit string": "h",
    "half-life": 11.7
  }
]

----------
Test method notes: HFrEF study Part 1 (SAD Cohorts 1 and 2): plasma pharmacokinetics
Assay type: in vivo, human
Particulars: human, plasma, oral, 525 mg, SAD Cohort 1, 525 mg (n = 2); read-out: Cmax
Result type: Cmax

[
  {
    "Cpd smiles": "Cn1cc(S(=O)(=O)[C@@](C)(F)C2CCN(C(=O)Nc3ccon3)CC2)c(C(F)F)n1",
    "Result type": "Cmax",
    "Value reported": "2720 ng/mL"
  }
]

----------
Test method notes: Single ascending oral dose study in healthy volunteers: plasma pharmacokinetics
Format: in vivo, human
Particulars: human, plasma, oral, 25 mg, 72 Hours Postdose; 25 mg; read-out: Plasma concentration, Mean
Result type: concentration at 72 h (ng/mL)

[
  {
    "Cpd smiles": "Cn1cc(S(=O)(=O)[C@@](C)(F)C2CCN(C(=O)Nc3ccon3)CC2)c(C(F)F)n1",
    "Value reported": 9.78
  }
]

----------
Test method notes: Single ascending oral dose study in healthy volunteers: plasma pharmacokinetics
Format: in vivo, human
Particulars: human, plasma, oral, 50 mg; read-out: Mean Residence Time, Mean
Result type: MRT (h)

[
  {
    "Compound": "Cn1cc(S(=O)(=O)[C@@](C)(F)C2CCN(C(=O)Nc3ccon3)CC2)c(C(F)F)n1 [Compound I]",
    "Result type": "MRT",
    "Value reported": 21
  }
]

This collection of values is drawn from patent US20220265629A1.
